Overview of recorded Functional assay Cross-linked by F(ab′)2 fragment IL-8 for various binders
Molecular target: T1, CD134 expressed on the cell surface of HT1080_OX40 cells (human, UniProt P43489 29-277); note: test concentration or dose not given here
T1 sequence (looked up): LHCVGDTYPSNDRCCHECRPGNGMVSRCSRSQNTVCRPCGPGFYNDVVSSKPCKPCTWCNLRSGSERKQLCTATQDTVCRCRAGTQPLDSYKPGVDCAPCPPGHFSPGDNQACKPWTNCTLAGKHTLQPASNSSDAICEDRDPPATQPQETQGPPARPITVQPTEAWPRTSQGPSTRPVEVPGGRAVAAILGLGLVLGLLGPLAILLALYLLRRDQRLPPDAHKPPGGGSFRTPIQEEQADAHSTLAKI
Assay: cell-based or functional assay
Write the figure, then the unit, nothing else.

Below are worked cases with known answers.
- P018.S.12.A.E02 (antibody, V domains shown, V regions on human Ig constant parts; also called AB134_73) VH: QSVEESGGRLVTPGTPLTLTCTASGFTLSSYYMGWVRQAPGKGLEWIGIIYPSGSAYYATWTKGRFTISRTSTTVDLKVTGPTTEDTATYFCARSTTSSLYYGYNLWGQGTLVTVSS VL: DIVMTQTPASVEAAVGGTVTIKCQASASITNWLAWYQQKPGQPPKLLIYKASTLESGVPSRFKGSGSGTEFTLTISDLESADAASYYCQSNYGGGSDTSHTFGGGTGVVVK: 1.63 abs. corr.
- P018.S.11.A.F02 (antibody, V domains shown, V regions on human Ig constant parts; also called AB134_38) VH: QSVEESGGRLVTPGTPLTLTCTASGFSLSNYNMGWVRQAPGEGLEWIGHISTDGSAYYASWAKGRFTISKTSTTVDLKITSPTTEDTGTYFCARLYYRHGYALNLWGQGTLVTVSS VL: DIVMTQTPASVSEPVGGTVTIKCQASQSVGSYLAWYQQKSGQPPKLLIYSASTLASGVPSRFKGSGSGTEFTLTISDLVSADAATYYCHCTYGSNITANWGTFGGGTGVVVK: 1.38 abs. corr.

From here, focus on the item given below.
// recorded Functional assay Cross-linked by F(ab′)2 fragment IL-8 for P018.S.12.A.F04 (antibody, V domains shown, V regions on human Ig constant parts; also called AB134_80) VH: QQQLEESGGGLVKPGGTLTLTCTASGIDFSSYWMWWVRQPPGKGLEWVACIYNGDGSTYYASWAKGRFTISKTSSTTVTLQMTSLTAADTATYFCARDFHLWGPGTLVTVSS VL: AQVLTQTASPVSAAVGSTVTINCQASQNIYKNNYLSWYQQKPGQPPKGLIYSASTLDSGVPLRFSGSGSGTKFTLTISDVQSDDAATYYCLGSVACSGPDCIVFGGGTEVVVK : 1.95 abs. corr.

From: patent US20210253725A1
